Test system: RPMI-8226 leukemia
method summary: NCI tumour cell line growth inhibition, 48 h
We begin with a simple list: items and their reported TGI.

Quick check: TGI of CCCCCCCCCNCCCCCCCCC ?
4.18 µM

Further cases:
Quick check: TGI of Nc1ccccc1/C=C\c1ccccc1 ?
> 100 µM

Quick check: TGI of CCN(CC)CCOc1ccc(Nc2ncc3cc(-c4ccc(O)cc4)c(=O)n(C)c3n2)cc1 ?
44.5 µM

Quick check: TGI of CCN(CC)c1ccc2c(c1)Oc1ccc(N(C(C)=O)c3ccccc3)cc1C21OC(=O)c2ccccc21 (stereo unspecified) ?
> 100 µM

Quick check: TGI of c1nc2cscc2c2cscc12 ?
> 100 µM

Quick check: TGI of C=C1C[C@@H]2C/C=C/C(=O)C/C(C)=C\C=C\C(=O)O[C@H](C=O)C/C(C)=C/[C@H](C1)O2 ?
3.29 µM

----------
System: TK-10 renal
method summary: NCI tumour cell line growth inhibition, 48 h
experimental readout: GI50

Quick check: GI50 of COc1ccc2nc(-c3ccccc3)cc(Nc3ccc(C(C)=O)cc3)c2c1 ?
5.24 µM

Further cases:
Quick check: GI50 of COc1cc(C(=O)O[C@H](C(=O)NCCNC(=O)[C@@H](OC(=O)c2cc(OC)cc3c(C)cccc23)[C@]2(C)CO2)[C@]2(C)CO2)c2cccc(C)c2c1 ?
0.475 µM

Quick check: GI50 of O=C(c1cc(F)c(Cl)cc1Cl)N1N=C(c2ccccc2)CC1(O)c1ccccc1 (centres undefined) ?
30.8 µM

Quick check: GI50 of CC1(C)NCCC[C@]2(C)[C@H]3C=CC4=C5C[C@](C)(CO)CC[C@]5(C)CC[C@@]4(C)[C@]3(C)CC[C@@H]12 ?
2.66 µM

Quick check: GI50 of C=C1C(=O)O[C@@H]2C1C[C@@H](O)/C(C)=C/C/C=C(\C)CCC[C@H](C)[C@H]2OC(C)=O (some centres undefined) ?
24.2 µM

Quick check: GI50 of C=C1C[C@@H]2C/C=C/C(=O)C/C(C)=C\C=C\C(=O)O[C@H](C=O)C/C(C)=C/[C@H](C1)O2 ?
3.62 µM

----------
Tested on: NCI-H226 lung
method summary: NCI tumour cell line growth inhibition, 48 h
experimental readout: TGI

Observe how each entry below is paired with its result.
Quick check: TGI of COC(=O)NC/C=C\c1nc(CC/C=C\C(=O)OC2CC3CC(=O)O[C@H](/C=C/CC(C)C)C[C@H]4CCC(C)C(C[C@H](OC)CC(C2)O3)O4)co1 (stereo partly drawn) ?
> 100 µM

Quick check: TGI of COc1ccc(C2=NN(C(=O)COc3ccc(Cl)cc3)C(O)(c3cc(F)c(Cl)cc3Cl)C2)cc1OC (stereo not drawn) ?
8.24 µM

Quick check: TGI of COc1ccc2c([nH]c3cc(O)c(C)cc32)c1C=O ?
> 25 µM

Quick check: TGI of Cc1ccccc1C(=O)C#Cc1cn(C2CC(O)C(CO)O2)c(=O)[nH]c1=O (stereo not drawn) ?
> 100 µM

We now examine a further molecule.
Quick check: TGI of Nc1ccccc1/C=C\c1ccccc1 ?
> 100 µM

----------
System: A498 renal
method summary: NCI tumour cell line growth inhibition, 48 h
experimental readout: TGI (µM)
Number only, in µM; omit the unit.

Quick check: TGI of Nc1ccc(C(=O)c2ccc(N)c(Br)c2)cc1Br ?
3.95

We now examine a further molecule.
Quick check: TGI of COc1cc(Cl)cc(-c2nn(C(=O)NCCN3CCN(C)CC3)cc2-c2ccncc2)c1 ?
24.7

----------
System: MDA-MB-435
method summary: NCI tumour cell line growth inhibition, 48 h
experimental readout: TGI (µM)
Number only, in µM; omit the unit.

Observe how each entry below is paired with its result.
Quick check: TGI of COc1ccc(/C=C2\Sc3nnc(C)n3N=C2c2cc(F)c(Cl)cc2Cl)cc1OC ?
23.2

Quick check: TGI of CC(=O)Nc1ccc(N2C(=O)CS(=O)(=O)C2c2cccc(Oc3ccccc3)c2)cc1 (configuration not stated) ?
48.5

Quick check: TGI of Cc1cccc(/C=N/NC(=S)N2CCCCCC2)n1 ?
38.9

Quick check: TGI of Cc1cc(C)c(O)c(CNCCCCCCNCc2cc(C)cc(C)c2O)c1 ?
2.81

Quick check: TGI of COc1cc(Cl)cc(-c2nn(C(=O)NCCN3CCN(C)CC3)cc2-c2ccncc2)c1 ?
35

Further cases:
Quick check: TGI of COc1ccc(C2c3cc4c(cc3OC(NNC(N)=O)C2C)OCO4)cc1 (configuration not stated) ?
8.2

Quick check: TGI of O=C(Nc1ccc(-n2cc(-c3ccncc3)c(-c3ccc(Cl)c(O)c3)n2)cc1)Nc1cc(C(F)(F)F)cc(C(F)(F)F)c1 ?
3.45

----------
System: M14 melanoma
method summary: NCI tumour cell line growth inhibition, 48 h; in the data active means GI50 below about 0.43 µM; inactive means the rest
One label from this list, please: active, inactive

Consider the worked cases shown below.
So what was the verdict on C/C=C(\C)C(=O)N[C@H]1[C@@H](OC(C)=O)C[C@]2(C)C3CC[C@@]4(C)C(CC[C@@H]4C(C)N(C)C)C3CCC2[C@H]1O (stereo partly drawn) in this test?
inactive

So what was the verdict on CCOC(=O)CCCn1c(SC)nc2cc(-c3ccco3)[nH]c2c1=O in this test?
inactive

So what was the verdict on Nc1nc(Nc2ccc3c(c2)CC[C@@H](N2CCCC2)CC3)nn1-c1cc2c(nn1)-c1ccccc1CCC2 in this test?
inactive

Further cases:
So what was the verdict on CC(=O)OCC1OC(OC2CC3C(C)(C)C(OC(C)=O)CC[C@]3(C)C3CCC45CC4(CC[C@H]5C(C)CC(O)[C@@H](O)C(C)(C)O)[C@]23C)C(O)C(O)C1O (stereo partly drawn) in this test?
inactive

So what was the verdict on N=C1c2nc3n(c2C(=O)c2nc4n(c21)CCCC4)CCCC3 in this test?
inactive

So what was the verdict on N#CC1=C(N)NC(=S)NC12Nc1ccccc1O2 (stereo not drawn) in this test?
inactive

----------
We begin with a simple list: items and their reported TGI.
System: SW-620 colon
method summary: NCI tumour cell line growth inhibition, 48 h

API: value(readout=TGI, system=SW-620 colon) for record NC(Cc1ccccc1)=NCC(=O)O
> 100 µM

API: value(readout=TGI, system=SW-620 colon) for record O=C1C(Cl)=C(Oc2ccc([N+](=O)[O-])cc2)C(=O)c2c(O)ccc(O)c21
> 80.9 µM

API: value(readout=TGI, system=SW-620 colon) for record O=C1c2n[nH]nc2C(=O)c2n[nH]nc21
> 100 µM

Further cases:
API: value(readout=TGI, system=SW-620 colon) for record N#CC1=C(N)NC(=S)NC12Nc1ccccc1O2 (configuration not stated)
> 100 µM

API: value(readout=TGI, system=SW-620 colon) for record O=c1[nH]nc(-c2ccc([N+](=O)[O-])cc2)n1/N=C/c1ccc([N+](=O)[O-])cc1
> 100 µM

API: value(readout=TGI, system=SW-620 colon) for record CN(C)c1ccc(/C=N/n2c(-c3ccccc3)nc3ccccc3c2=O)cc1
> 100 µM

API: value(readout=TGI, system=SW-620 colon) for record Cc1nc2c(=O)[nH]c(=O)n(C)c2[nH]c1=O
> 100 µM

API: value(readout=TGI, system=SW-620 colon) for record Nc1ccc(C(=O)c2ccc(N)c(Br)c2)cc1Br
> 100 µM

----------
A short record of GI50 observed with U251 CNS follows.

Observe how each entry below is paired with its result.
API: value(readout=GI50, system=U251 CNS) for record COc1cc(NC(=O)c2cc(OC)c3ccn(C)c3c2)cc2c1C[C@]1(C)CC[C@@H](O)C(C)(C)[C@H]1O2
4.05 µM

API: value(readout=GI50, system=U251 CNS) for record Cc1cc(C)c(O)c(CNCCCCCCNCc2cc(C)cc(C)c2O)c1
1.58 µM

API: value(readout=GI50, system=U251 CNS) for record N=C1c2nc3n(c2C(=O)c2nc4n(c21)CCCC4)CCCC3
5.75 µM

API: value(readout=GI50, system=U251 CNS) for record CC(=O)Nc1nc(SCc2ccccc2)c2ncn(C(C)=O)c2n1
88.8 µM

API: value(readout=GI50, system=U251 CNS) for record O=C(NC1CC1)c1ccc(-c2nc3ccc4[nH]ncc4c3c3c2CCCC3)cc1
2.19 µM

We now examine a further molecule.
API: value(readout=GI50, system=U251 CNS) for record COc1ccc(C2=NN(C(=O)COc3ccc(Cl)cc3)C(O)(c3cc(F)c(Cl)cc3Cl)C2)cc1OC (stereo unspecified)
5.69 µM

----------
Tested on: SF-295 CNS
method summary: NCI tumour cell line growth inhibition, 48 h
experimental readout: TGI

Observe how each entry below is paired with its result.
Quick check: TGI of COC(=O)C1=COC(C)C2C[n+]3ccc4c([nH]c5ccccc54)c3CC12 (stereo unspecified) ?
> 100 µM

Quick check: TGI of CCOC(=O)/C(=C\c1ccc(OCc2ccccc2)c(OC)c1)C(=O)c1ccccc1 ?
46.8 µM

Quick check: TGI of NNC(=Nc1ccccc1)SCc1ccccc1 ?
> 100 µM

Quick check: TGI of Cc1ccc2ccc(=O)oc2c1 ?
> 100 µM

Quick check: TGI of CC1(C)CC(=O)C2=C(C1)NC(SCC(=O)O)=C(C#N)C2c1ccc(Br)cc1 (stereo unspecified) ?
> 100 µM

Quick check: TGI of Cc1ccc(S(=O)(=O)N(CC(O)c2ccccc2)c2ccccc2F)cc1 (stereo unspecified) ?
37.9 µM

Further cases:
Quick check: TGI of Cc1ccccc1CN1CC2=C(CCN(Cc3ccccc3)C2=O)N2CCN=C12 ?
> 60.4 µM

Quick check: TGI of COc1ccc(C2S/C(=C\c3cc(OC)c(OC)c(OC)c3)C(=O)N2NC(=O)Cc2ccccc2)cc1 (stereo unspecified) ?
> 100 µM

Quick check: TGI of COc1cc(C(=O)O[C@H](C(=O)NCCNC(=O)[C@@H](OC(=O)c2cc(OC)cc3c(C)cccc23)[C@]2(C)CO2)[C@]2(C)CO2)c2cccc(C)c2c1 ?
0.793 µM
